- System: SF-295
- method summary: NCI tumour cell line growth inhibition, 48 h
Active and inactive are the calls of the source. No stated cut-off is given here; in the data, active = GI50 up to about 1.1 µM and inactive = higher.
experimental endpoint: GI50

                                   compound  experimental_endpoint      measured_result
0  CC1(C)C2CCC1(C)C(N/C(=C(/C(Cl)=C(Cl)Cl)[N+](=O)[O-])n1nnc3ccccc31)C2 (stereo not given)                   GI50   24.3 µM (inactive)
1  COc1ccc2c(c1)-c1nc(=S)n(CCCN(C)C)c3ccc([N+](=O)[O-])c(c13)N2                   GI50   1.81 µM (inactive)
2  O=[N+]([O-])c1ccc2nc(/C(=N\Nc3ccccc3)C(O)c3ccc4c(c3)OCO4)c(O)nc2c1 (stereo not given)                   GI50  > 100 µM (inactive)
3  Clc1ccc(-c2c(C3=NCCCN3)nnn2-c2ccc(Cl)cc2)cc1                   GI50   34.7 µM (inactive)
4  Cc1c(C(=O)CC(=O)C(=O)NC2C3CC4CC(C3)CC2C4)[n+]([O-])c2ccccc2[n+]1[O-] (stereo not given)                   GI50  > 100 µM (inactive)
5  CSc1ccc(C2OC(=O)c3ccccc32)c2ccccc12 (stereo not given)                   GI50  > 100 µM (inactive)
6  CC1(CF)SCc2nc3ccccc3n21 (stereo not given)                   GI50  > 100 µM (inactive)
7  CC(C)(C)OC(=O)N1N=NC2C3OC(CC3=O)C21 (stereo not given)                   GI50   > 10 µM (inactive)

stdin: I am curious: what GI50 value has been reported for CC(C)c1ccc(/C=C2/C=C(c3ccc4ccccc4c3)OC2=O)cc1 ?
stdout: > 94.6 µM (inactive)

stdin: Quick one: COc1ccc(-c2c(C3=NCCCN3)nnn2-c2ccc([N+](=O)[O-])cc2)cc1
stdout: > 100 µM (inactive)

stdin: Note, next up: CCOC(=O)c1c(N2CCOCC2)ncn(-c2cccc(Cl)c2)c1=O
stdout: > 100 µM (inactive)

stdin: Try the compound O=C(c1ccccc1)c1ccc(N2C(=O)/C(=C/c3ccccc3S)N=C2c2ccccc2)c(N2C(=O)/C(=C/c3ccccc3S)N=C2c2ccccc2)c1
stdout: 46.6 µM (inactive)

stdin: Another compound to check: C/N=c1\ss/c(=N\C(=S)N(C)C)n1C1CCCCC1
stdout: > 31.6 µM (inactive)

stdin: Cc1ccc(S[C@@H](C)[C@@](O)(C(N)=O)c2ccccc2)cc1 , same question.
stdout: 18.5 µM (inactive)

---

- System: IGROV-1
- method summary: NCI tumour cell line growth inhibition, 48 h
Active and inactive are the calls of the source. Cut-off read from the data, not from the text of the source: active = GI50 up to about 1.1 µM and inactive = higher.
experimental endpoint: GI50

stdin: Value lookup for GI50; key = COc1cc(/C=C\c2ccc(O)cc2)cc(OC)c1OC
stdout: 5.24 µM (inactive)

stdin: # iterate: CCOC(=O)c1c(C)c2c(n1C)CCc1c[nH]nc1-2
stdout: > 100 µM (inactive)

stdin: What would you report for CC(C)(CN)SCc1ccccc1 ?
stdout: > 100 µM (inactive)

stdin: And O=c1c2cc(S(=O)(=O)Nc3ccccc3Cl)ccc2ncn1NS(=O)(=O)c1ccc(Br)cc1 ?
stdout: > 37.5 µM (inactive)

stdin: Subsequent entry: CN(C)/C=N/c1c2c(nc3ccccc13)CCCC2
stdout: > 100 µM (inactive)

stdin: Then this compound: C=CC1(C)CC(=O)C2(O)C(C)(O1)C(OC(C)=O)C(O)C1C(C)(C)CCC(O)C12C (configuration not stated)
stdout: 47.3 µM (inactive)

stdin: For CSC(SC)=C(C(=O)O)P(=O)(O)O then?
stdout: > 100 µM (inactive)

---

- Tested on: 786-0
- method summary: NCI tumour cell line growth inhibition, 48 h
Activity calls are given as the source filed them. No stated cut-off is given here; in the data, active = GI50 up to about 1.1 µM and inactive = higher.
In this section we review reported GI50 values for a set of compounds.

// solved cases for GI50 follow
compound	GI50
C/C(=N/OCCC(=O)O)C1CC1	> 100 µM (inactive)
COc1ccc(/C=N/N=C(\N)NO)c(O)c1	> 10 µM (inactive)
C=CCSC1=N/C(=C\c2ccc(C)cc2)C(=O)N1CC=C	18.3 µM (inactive)
c1ccc(C2=NN3CN(N2)c2ccccc2OCCCOc2ccccc23)cc1	> 100 µM (inactive)
Clc1ccc(-c2c(C3=NCCCN3)nnn2-c2ccc(Cl)cc2)cc1	40.9 µM (inactive)
N=C(N)SCc1cc(Cl)cc(Cl)c1O	18 µM (inactive)
CC(C)=CCC[C@@H](C)C1=CC(=O)C(C)=C(O)C1=O	5.78 µM (inactive)
Cc1cc(C)n(C(=O)CSc2nc3ccc(I)cc3c(=O)n2Cc2ccccc2)n1	28.3 µM (inactive)
CCOC(=O)c1cnc2sc3ccc4ccccc4c3n2c1=O	> 100 µM (inactive)
COC1=C2CC(C)CC(OC)[C@@H](OC(=O)CCN)[C@H](C)/C=C(\C)C(OC(N)=O)C(OC)/C=C\C=C(/C)C(=O)NC(=CC1=O)C2=O (stereo partly specified)	1.05 µM (active)

stdin: Give recorded GI50 with 786-0 for the following compound: CN1Cc2ccccc2/C=C\c2ccccc21
stdout: 95.9 µM (inactive)

stdin: Input O=[N+]([O-])c1ccc2nc(/C(=N\Nc3ccccc3)C(O)c3ccc4c(c3)OCO4)c(O)nc2c1 (stereo unspecified)
stdout: > 100 µM (inactive)

stdin: Consider next the compound CC(C)CCS(=O)(=O)OCCCCOS(=O)(=O)CCC(C)C in the same way.
stdout: > 100 µM (inactive)

stdin: Then S=C(Nc1ccc(/N=N/c2ccccc2)cc1)SCc1ccccc1 ?
stdout: 17.8 µM (inactive)

stdin: Now give it for COC(=O)c1cc(C(=CCC[C@H]2CC[C@@]3(C)C(CCC4C3CC[C@@]3(C)C4CC[C@@H]3C(C)CCCC(C)C)C2)c2cc(Cl)c(O)c(C(=O)OC)c2)cc(Cl)c1O (stereo partly specified) too.
stdout: > 10 µM (inactive)

stdin: Entry [O-]c1c[n+](CCCC[n+]2cc([O-])on2)no1 please
stdout: > 100 µM (inactive)

stdin: Again, but for N#C/N=C(\N)NCCO
stdout: 38.1 µM (inactive)

stdin: Record: O=C(CBr)c1ccc2cc(Br)c3ccccc3c2c1
stdout: 37.6 µM (inactive)

---

- Test system: K562
- method summary: NCI tumour cell line growth inhibition, 48 h
Active and inactive are the calls of the source. No stated cut-off is given here; in the data, active = GI50 up to about 1.1 µM and inactive = higher.
In this exercise, the only acceptable responses are y for active, n for inactive

>>> print(df.to_string())
                                molecule  answer_label
0  COC(=O)CCCCC/C(=C\C(=O)C(Cl)(Cl)Cl)OC             n

stdin: Hi team, can someone confirm the assay call for O=C1c2ccccc2N2OC3C4CCC(C4)C3C12c1ccccc1 (centres undefined) ?
stdout: n

stdin: // next record O=C1CSC(c2cccc([N+](=O)[O-])c2)N1c1ccc(-n2c(-c3ccccc3)nc3ccccc3c2=O)cc1 (centres undefined)
stdout: n

stdin: Cool, now O=C(CC(C(=O)c1cccs1)c1ccsc1)c1ccsc1 (centres undefined)
stdout: n

stdin: Proceed to O=[N+]([O-])c1c(/C=N/Nc2ccccc2)oc(-c2ccc3c(c2)OCO3)c1-c1ccc2c(c1)OCO2
stdout: n

stdin: Consider next the molecule CC(C)(CO)CNc1nc(N)nc(Cl)c1C=O in the same way.
stdout: n

stdin: Could you do the same for Cc1ccc(S(=O)(=O)Nn2c(C)cc3ccc(S(=O)(=O)Nc4ccccc4[N+](=O)[O-])cc3c2=O)cc1 , please?
stdout: n

stdin: Let us now turn to CCOC(=O)c1c(C)c2c(n1C)CCc1c[nH]nc1-2
stdout: n

stdin: What about CCSc1nc2cccc([N+](=O)[O-])c2n1CC ?
stdout: n

---

- Test system: SK-MEL-2
- method summary: NCI tumour cell line growth inhibition, 48 h
Activity calls are given as the source filed them. No stated cut-off is given here; in the data, active = GI50 up to about 1.1 µM and inactive = higher.
Pick from true (1) (active), false (0) (inactive) when you respond.

Before answering, review these 3 worked examples.
compound	answer label
CC(=O)C(=[N+]=[N-])C(=O)N1CCOC1=O	false (0)
C=C(C)[C@H]1CC[C@@]2(C)C(C1)[C@H](C)CC[C@@H]2O (stereo partly drawn)	false (0)
O=c1[nH]nc(Cc2ccc(Cl)cc2)n1O	false (0)

Let's switch to this compound now.
stdin: # fetch the recorded call for CSC1=Nc2ccccc2N=C(c2ccccc2)C1 here
stdout: false (0)

---

- Test system: KM-20L2
- method summary: NCI tumour cell line growth inhibition, 48 h
Activity calls are given as the source filed them. Rule as the data show it: active = GI50 up to about 1.1 µM and inactive = higher.
Reply using exactly one outcome from class 1 for active, class 0 for inactive

Sample answers from the record:
>>> df
                                   molecule  answer_label
0  COc1cc2c(cc1OC)C(C(c1ccccc1)c1ccccc1)N(C)CC2 (stereo not given)       class 0
1  CSc1ccc(C2OC(=O)c3ccccc32)c2ccccc12 (stereo not given)       class 0
2      C/N=c1\ss/c(=N\C(=S)N(C)C)n1C1CCCCC1       class 0

stdin: Assay outcome for CCC(=O)OC[n+]1ccc2c(C)c3[nH]c4ccccc4c3c(C)c2c1 : what was it?
stdout: class 1

stdin: Another: CC1=CC(=O)N2[C@H](OC[C@@H]2C(C)C)O1
stdout: class 0
